Source: patent US20250360220A1

# System name: K18 Tau (Homo sapiens, UniProt P10636)
# Construct: K18 Tau was first expressed, collected, and purified; His tag (cleaved yes); made in house
# Sequence (P10636 561-685 limits assumed): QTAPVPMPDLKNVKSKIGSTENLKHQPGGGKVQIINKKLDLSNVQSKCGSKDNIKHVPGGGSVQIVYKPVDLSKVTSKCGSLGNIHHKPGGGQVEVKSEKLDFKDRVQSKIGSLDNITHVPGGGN
# Test name: Tau Kinetics Thioflavin T plate reader assay
# Assay type: biochemical
# Test parameters: 1 μM PLP/Pep; average of the amplitudes at 10, 15 and 20 hr
// Criterion not met strictly below 600 in Avg P Amplitude; Criterion met otherwise

- Substance: "TP12: PLP generated from peptide monomers characterized by SEQ ID: 10 (VQPINK)"
  Assigned category: "Criterion not met"
- Substance: "TP7: PLP generated from peptide monomers characterized by SEQ ID: 2 (DRVQIVYKRR)"
  Assigned category: "Criterion met"
- Substance: "DRVQIVYKRR [P7]"
  Assigned category: "Criterion not met"
- Substance: "TP4: PLP generated from peptide monomers characterized by SEQ ID: 4 (VQIINKRR)"
  Assigned category: "Criterion met"

====

Listing: PLP or Pep 20 hr (average amplitude) of selected substances
# System name: K18 Tau (Homo sapiens)
# Construct: K18 Tau was first expressed, collected, and purified; His tag (cleaved yes); made in house
# Test name: Tau Kinetics Thioflavin T plate reader assay
# Assay type: biochemical
# Test parameters: 10 μM PLP/Pep; K18 Tau 10 μM, heparin, thioflavin T, PBS; 20 hr
Property measured: PLP or Pep 20 hr (average amplitude)

- Substance: "TP12: PLP generated from peptide monomers characterized by SEQ ID: 10 (VQPINK)"
  Experimental value: 36
- Substance: "VQPINK [P12]"
  Experimental value: 424
- Substance: "DRVQIVYKRR [P7]"
  Experimental value: 438
- Substance: "VQIINKRR [P4]"
  Experimental value: 395

====

# System name: K18 Tau (Homo sapiens, UniProt P10636)
# Construct: K18 Tau was first expressed, collected, and purified; His tag (cleaved yes); made in house
# Test name: Tau Kinetics Thioflavin T plate reader assay
# Format: biochemical
# Test parameters: 1 μM PLP/Pep; K18 Tau 10 μM, heparin, thioflavin T, PBS; 20 hr
// condition not met strictly below 700 in PLP or Pep 20 hr (average amplitude); condition met otherwise

- Substance: "TP12: PLP generated from peptide monomers characterized by SEQ ID: 10 (VQPINK)"
  Assigned category: "condition not met"
- Substance: "TP7: PLP generated from peptide monomers characterized by SEQ ID: 2 (DRVQIVYKRR)"
  Assigned category: "condition not met"
- Substance: "VQIINKRR [P4]"
  Assigned category: "condition not met"
- Substance: "DRVQIVYKRR [P7]"
  Assigned category: "condition not met"
- Substance: "TP4: PLP generated from peptide monomers characterized by SEQ ID: 4 (VQIINKRR)"
  Assigned category: "condition met"

====

# System name: K18 Tau (Homo sapiens)
# Construct: K18 Tau was first expressed, collected, and purified; His tag (cleaved yes); made in house
# Test name: Tau Kinetics Thioflavin T plate reader assay
# Type: biochemical
# Test parameters: 1 μM PLP/Pep; Avg P amplitude divided by Avg Tau amplitude x 100
Property measured: PLP or Pep/Tau %

- Substance: "VQPINK [P12]"
  Experimental value: "182%"
- Substance: "DRVQIVYKRR [P7]"
  Experimental value: "135%"
- Substance: "TP12: PLP generated from peptide monomers characterized by SEQ ID: 10 (VQPINK)"
  Experimental value: "34%"
- Substance: "VQIINKRR [P4]"
  Experimental value: "177%"
- Substance: "TP4: PLP generated from peptide monomers characterized by SEQ ID: 4 (VQIINKRR)"
  Experimental value: "143%"
- Substance: "TP7: PLP generated from peptide monomers characterized by SEQ ID: 2 (DRVQIVYKRR)"
  Experimental value: "110%"
